# Test system: 565726-208-R1-J5-PDC complex spheroids, growth inhibition;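 note: spheroids exposed to compounds for seven days before readout; 100% = DMSO vehicle control viability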
# assay text: Anticancer human tumor 565726-208-R1-J5-PDC patient-derived pancreatic adenocarcinoma cell line growth inhibition [RAS]
# conditions: second compound 0.316 µM; first compound 0.0316 µM; stronger effect = lower value
measured parameter: viability, T/C (%)

- CC(Nc1ccc2c(c1)OCCn1cc(N3C(=O)OCC3C(F)F)nc1-2)C(N)=O (stereo not given) + C=CC(=O)N1CCN(c2nc(OCC3CCCN3C)nc3c(F)c(-c4nc(N)cc(C)c4C(F)(F)F)c(Cl)cc23)C(C)C1: 141
- CCC(CC)c1cc(NC2CCC(N)C2)n2nccc2n1 (stereo not given) + C=CC(=O)N1CCN(c2nc(OCC3CCCN3C)nc3c(F)c(-c4nc(N)cc(C)c4C(F)(F)F)c(Cl)cc23)C(C)C1: 182
- CC(C)NCC(C(=O)N1CCN(c2ncnc3c2C(C)CC3O)CC1)c1ccc(Cl)cc1 (stereo not given) + C=CC(=O)N1CCN(c2nc(OCC3CCCN3C)nc3c(F)c(-c4nc(N)cc(C)c4C(F)(F)F)c(Cl)cc23)C(C)C1: 147
- O=C(c1ccc(F)c(F)c1Nc1ccc(I)cc1F)N1CC(O)([C@@H]2CCCCN2)C1 + C=CC(=O)N1CCN(c2nc(OCC3CCCN3C)nc3c(F)c(-c4nc(N)cc(C)c4C(F)(F)F)c(Cl)cc23)C(C)C1: 73.1
- NC1c2ccccc2OC12CCN(c1cnc3c(N4CCCc5ncccc54)n[nH]c3n1)CC2 (stereo not given) + C#Cc1c(F)ccc2cc(O)cc(-c3ncc4c(N5CC6CCC(C5)N6)nc(OCC56CCCN5CC(F)C6)nc4c3F)c12: 104
- C=CC(=O)Nc1cc(Nc2nccc(-c3cn(C)c4ccccc34)n2)c(OC)cc1N(C)CCN(C)C + C#Cc1c(F)ccc2cc(O)cc(-c3ncc4c(N5CC6CCC(C5)N6)nc(OCC56CCCN5CC(F)C6)nc4c3F)c12: 88.9
- Cc1nc(N2CCC3(CC2)COC(C)C3N)c(CO)nc1Sc1ccnc(N)c1Cl (stereo not given) + C=CC(=O)N1CCN(c2nc(OCC3CCCN3C)nc3c(F)c(-c4nc(N)cc(C)c4C(F)(F)F)c(Cl)cc23)C(C)C1: 180
- C[C@@H](NC(=O)c1ncnc(N)c1Cl)c1ncc(C(=O)Nc2cc(C(F)(F)F)c(Cl)cn2)s1 + C#Cc1c(F)ccc2cc(O)cc(-c3ncc4c(N5CC6CCC(C5)N6)nc(OCC56CCCN5CC(F)C6)nc4c3F)c12: 150
- CC1(O)CCCC1n1c(=O)c(C(F)F)cc2cnc(NC3CCN(S(C)(=O)=O)CC3)nc21 (stereo not given) + C#Cc1c(F)ccc2cc(O)cc(-c3ncc4c(N5CC6CCC(C5)N6)nc(OCC56CCCN5CC(F)C6)nc4c3F)c12: 91.6
- C[C@@H](NC(=O)c1ncnc(N)c1Cl)c1ncc(C(=O)Nc2cc(C(F)(F)F)c(Cl)cn2)s1 + C=CC(=O)N1CCN(c2nc(OCC3CCCN3C)nc3c(F)c(-c4nc(N)cc(C)c4C(F)(F)F)c(Cl)cc23)C(C)C1: 86.7
